B1: POU domain, class 3, transcription factor 1, residues 247 to 324; numbered along this chain, Q03052 (parent)
chain: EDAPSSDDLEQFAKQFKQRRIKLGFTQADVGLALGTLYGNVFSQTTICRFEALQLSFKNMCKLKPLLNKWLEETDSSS

variants of: B1; assay: abundance fitness (aPCA) (normalised: wild type 0, dead -1); higher = more abundant; growth selection in yeast, the domain comes from the species named; conditions: Homo sapiens
Entries and their measured abundance fitness follow.
Please reply with the number alone, leaving off any unit.

VARIANT_IDENTIFIER | abundance fitness
N59S | -0.084
S43P | -0.007
N59D | 0.193
N59E | 0.132
E72N | -0.152
E73N | -0.154

Quickly give me recorded abundance fitness for L71N -0.341

For the variant I21G , report abundance fitness. -0.689

Supply abundance fitness value. Item: L53A 0.042

// Input: P65E . Output its abundance fitness only. -0.193

Let me know recorded abundance fitness for S76M , thanks. 0.012

Fill in reported abundance fitness for this entry: Q54K -0.098

// Input: E73A . Output its abundance fitness only. -0.038

Find the measured abundance fitness of T36D and report it. 0.112

Kindly indicate its recorded abundance fitness. Item: R20M -0.915

Answer with the recorded abundance fitness for the variant listed here: P65R -0.205

For the variant K64G , give its measured abundance fitness value. -0.911

Given the variant N68G , write its reported abundance fitness. -0.049

Respond only with abundance fitness recorded for T46S -0.191

Give me measured abundance fitness, please, for this variant: K64D -0.653

For Q54H , write its abundance fitness. -0.035

Supply measured abundance fitness of P65F in your reply. -0.175

Complete the entry with abundance fitness for L71E -0.63

Tell me its abundance fitness given L34P as the entry. -0.772

Please give measured abundance fitness of the following entry: M60T -0.396

Query abundance fitness for Q44K 0.041

State its abundance fitness for this variant: L66D -0.822

Answer with the recorded abundance fitness for the variant listed here: L66K -0.299

Identify measured abundance fitness corresponding to C61D -0.96
